Taken from PubChem BioAssay (Tox21).

experiment: qHTS assay to identify small molecule antagonists of the estrogen receptor alpha (ER-alpha) signaling pathway using the BG1 cell line - cell viability counter screen (AID 743081); conditions: BG1Luc4E2 viability, CellTiter-Fluor, 22 h; series mostly up to 70.3 µM;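 also: compound given together with 17beta-estradiol as the ER stimulus; nearly all actives have a fitted effect of over 45% in size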
Records with an inconclusive call do not appear. Activity calls are given as the source filed them. Calls follow the shape of the dose curve; as a rule, active = well fitted cell-killing curve with a large enough effect in the repeat runs; inconclusive = weak or mixed curves, or effect the other way; inactive = flat fitted curve, though single readings scatter.
One label from this list, please: active, inactive

Input: Identify the outcome logged in this assay for the compound shown: O=C(O)c1cc(N=Nc2ccc(S(=O)(=O)Nc3ccccn3)cc2)ccc1O
Output: active

Input: Write down the call the test reported for this compound. Item: COc1ccc2[nH]cc(CCNC(C)=O)c2c1
Output: inactive

Input: Field: outcome | Entry: Cn1c(=O)c2[nH]cnc2n(C)c1=O
Output: inactive

Input: Tell me the recorded outcome of this test for O=S(=O)(O)NC1CCCCC1 .
Output: inactive

Input: Query: recorded result category for O=C(O)c1cccnc1 in this test
Output: inactive

Input: Record lookup: outcome of this test for NC(=O)NC1NC(=O)NC1=O (stereo unspecified) ?
Output: inactive

Input: What classification did CNC[C@H](O)c1cccc(O)c1 end up with in this test?
Output: inactive

Input: Which result was noted for this compound in the test: CCCC(O)C(CC)CO (stereo unspecified)
Output: inactive

Input: Dear colleague, could you share the recorded outcome for CCCCC(CC)COC(=O)/C=C/c1ccc(OC)cc1 (stereo unspecified) when you have a moment?
Output: inactive

Input: Test call for this compound, please: CCCCC1C(=O)N(c2ccccc2)N(c2ccccc2)C1=O
Output: inactive

New cases:
Input: Test call for this compound, please: O=C(O)CCC(=O)O
Output: inactive

Input: Just curious, what result did N=C(N)c1ccc(OCCCCCOc2ccc(C(=N)N)cc2)cc1 get here?
Output: inactive

Input: Please share the test call associated with Nc1ccc(O)c(C(=O)O)c1 .
Output: inactive

Input: Would you mind telling me which call this test gave O=NO ?
Output: inactive

Input: Which outcome was entered for the compound NC(=O)c1cnccn1 in this test?
Output: inactive

Input: State the result this test recorded for Cc1ccc(C)c(OCCCC(C)(C)C(=O)O)c1 .
Output: inactive

====

biological target: Peroxisome proliferator-activated receptor gamma (Homo sapiens); test: qHTS assay to identify small molecule antagonists of the peroxisome proliferator-activated receptor gamma (PPARg) signaling pathway (AID 743191); conditions: HEK293H PPARg-UAS-bla, beta-lactamase ratio, antagonist, 17 h; series mostly up to 62.6 µM; also: % is scaled to controls: 0 for no effect and ±100 for the full control effect; nearly all actives have a fitted effect of over 30% in size
Inconclusive results are not listed. Active and inactive are the calls of the source. Calls come from the whole dose curve.
MEASURE_NAME: outcome

Input: outcome of CC(=O)Nc1nnc(S(N)(=O)=O)s1 on Peroxisome proliferator-activated receptor gamma (Homo sapiens)?
Output: inactive

Input: Query for Peroxisome proliferator-activated receptor gamma (Homo sapiens): what outcome does the record show for Nc1ccn([C@H]2CC[C@@H](CO)O2)c(=O)n1 ?
Output: inactive

Input: # get_value(readout= outcome, system= Peroxisome proliferator-activated receptor gamma (Homo sapiens)) for Cc1cn([C@H]2C[C@H](N=[N+]=[N-])[C@@H](CO)O2)c(=O)[nH]c1=O
Output: inactive

Input: Test system Peroxisome proliferator-activated receptor gamma (Homo sapiens); read-out outcome; what value for Nc1ccc(S(=O)(=O)Nc2nccs2)cc1 ?
Output: inactive

====

Biological target: Nuclear receptor subfamily 1 group I member 2 (Homo sapiens) (UniProt O75469)
Test: Human pregnane X receptor (PXR) activation by small molecules, qHTS assay (AID 1346985); also: nearly all actives have a fitted effect of over 40% in size; as to activation: % is scaled to controls: 0 for no effect and ±100 for the full control effect
Settings: DPX-2 HepG2 CYP3A4-luciferase, 24 h; series mostly up to 38.3 µM
From the text: National Center for Advancing Translational Sciences [NCATS] NIH Chemical Genomics Center [NCGC] U.S. Environmental Protection Agency [EPA] National Institutes of Environmental Health Sciences [NIEHS] National Toxicology Program [NTP] The Pregnane X receptor (PXR), a ligand activated nuclear receptor plays a critical role in the regulation of genes involved in drug metabolism and transporters. Activation of PXR may be involved in the unwanted adverse drug-drug interactions. […]
Results filed as inconclusive are left out. Active and inactive are the calls of the source. The call rests on the fitted dose curve; in most records, active means well fitted activation curve with a large enough effect in the repeat runs; inconclusive means weak or mixed curves; inactive means flat fitted curve, though single readings scatter.
Classes to choose from: active, inactive

Reference set (3 entries):
Input: Hi team, can someone confirm the assay call for Cc1ccccc1C(OCCN(C)C)c1ccccc1 (centres undefined) ?
Output: inactive

Input: I would be grateful if you could indicate the recorded call for O=C(O)c1cc(N=Nc2ccc(S(=O)(=O)Nc3ccccn3)cc2)ccc1O .
Output: inactive

Input: Test call, this compound: O=c1ccc2ccccc2o1
Output: inactive

Continuing:
Input: For CC(O)CO (centres undefined) , which call appears in the assay record?
Output: inactive

Input: Tell me the recorded outcome of this test for NC(=O)c1ccccc1O .
Output: inactive

Input: What did this assay record as the result for CCCCOC(=O)CC(CC(=O)OCCCC)(OC(C)=O)C(=O)OCCCC ?
Output: active

Input: What is the recorded call for this compound in the test? C/C=C/c1ccc(OC)cc1
Output: inactive

====

assay: qHTS RealTime-Glo MT Cell Viability Assay in HEK293 cells - 40 hour (AID 1224874); details: RealTime-Glo luminescence; hits give low values; also: % is scaled to controls: 0 for no effect and ±100 for the full control effect; nearly all actives have a fitted effect of over 50% in size
Records with an inconclusive call do not appear. Activity calls are given as the source filed them. Calls follow the shape of the dose curve; as a rule, active = well fitted cell-killing curve with a large enough effect in the repeat runs; inconclusive = weak or mixed curves, or effect the other way; inactive = flat fitted curve, though single readings scatter.
MEASURE_NAME: max response

These recorded examples may help you get a feel for the data.
Input: # input molecule: O=S(=O)(O)c1ccc2cc(O)ccc2c1 ; wanted: its max response
Output: -0.603% (inactive) [middle of 4 runs]

Input: For the molecule shown here, Nc1ccc(S(=O)(=O)Nc2nccs2)cc1 , give the reported max response.
Output: 5.06% (inactive) [middle of 4 runs]

Input: Suppose we examine the molecule C/C=C/c1ccc(OC)cc1 ; what max response value has been reported?
Output: -0.468% (inactive) [middle of 4 runs]

Next:
Input: I'd like to know its max response. The molecule in question is Cc1ccc(O)cc1
Output: 8.24% (inactive) [middle of 4 runs]

Input: Give its max response value. Item: CC(C)[C@@H]1CC[C@@H](C)C[C@H]1O
Output: 3.82% (inactive) [middle of 5 runs]

====

biological target: Estrogen receptor (Homo sapiens) (UniProt P03372); experiment: qHTS assay to identify small molecule agonists of the estrogen receptor alpha (ER-alpha) signaling pathway using the BG1 cell line (AID 743079); conditions: BG1Luc4E2 cells, ERE-luciferase agonist, 22 h; series mostly up to 70.3 µM; also: nearly all actives have a fitted effect of over 20% in size; also: potency is read from the fitted curve at half-maximal effect; as to activation: % is scaled to controls: 0 for no effect and ±100 for the full control effect
Sequence (P03372 whole entry, looked up): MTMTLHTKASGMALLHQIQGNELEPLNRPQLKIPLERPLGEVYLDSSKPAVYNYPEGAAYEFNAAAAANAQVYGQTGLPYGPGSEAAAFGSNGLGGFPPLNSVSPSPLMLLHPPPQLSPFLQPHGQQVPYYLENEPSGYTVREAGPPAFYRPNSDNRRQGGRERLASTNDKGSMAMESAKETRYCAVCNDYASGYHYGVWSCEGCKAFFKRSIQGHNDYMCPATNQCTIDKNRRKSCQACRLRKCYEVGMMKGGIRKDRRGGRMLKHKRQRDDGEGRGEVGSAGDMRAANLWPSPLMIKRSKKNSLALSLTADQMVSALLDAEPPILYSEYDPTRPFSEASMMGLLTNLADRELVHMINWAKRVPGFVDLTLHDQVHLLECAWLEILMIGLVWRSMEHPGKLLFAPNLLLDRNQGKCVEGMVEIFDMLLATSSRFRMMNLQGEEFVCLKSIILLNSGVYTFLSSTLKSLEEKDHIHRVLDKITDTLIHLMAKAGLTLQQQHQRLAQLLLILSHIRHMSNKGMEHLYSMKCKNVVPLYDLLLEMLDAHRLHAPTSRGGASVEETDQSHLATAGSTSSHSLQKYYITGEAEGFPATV
Records with an inconclusive call do not appear. Calls of active or inactive are those of the source. The call rests on the fitted dose curve; in most records, active means well fitted activation curve with a large enough effect in the repeat runs; inconclusive means weak or mixed curves, or effect the other way; inactive means no such curve, though single readings can be large or run the other way.
MEASURE_NAME: Potency

Input: Record request: Potency value, item NS(=O)(=O)c1cc(C(=O)O)c(NCc2ccco2)cc1Cl
Output: 15 µM (active)

Input: Query (compound): Cc1ccccc1C(OCCN(C)C)c1ccccc1 (stereo not drawn) ; field requested: Potency
Output: inactive

Input: What does the record list as Potency for O=C(O)c1[nH]n(-c2ccc(S(=O)(=O)O)cc2)c(=O)c1N=Nc1ccc(S(=O)(=O)O)cc1 ?
Output: inactive

====

assay: qHTS assay to identify small molecule antagonists of the constitutive androstane receptor (CAR) signaling pathway - cell viability counter screen (AID 1224837); settings: HepG2-CYP2B6-hCAR viability, CellTiter-Fluor, 23 h, co-treated with 50 nM CITCO; series mostly up to 92.4 µM; also: % is scaled to controls: 0 for no effect and ±100 for the full control effect; nearly all actives have a fitted effect of over 45% in size
Results filed as inconclusive are left out. Activity calls are given as the source filed them. The call rests on the fitted dose curve; in most records, active means well fitted cell-killing curve with a large enough effect in the repeat runs; inconclusive means weak or mixed curves, or effect the other way; inactive means flat fitted curve, though single readings scatter.
MEASURE_NAME: outcome

Field: example entries. Status: answers known.
Input: Given the compound Nc1ccc(S(=O)(=O)c2ccc(N)cc2)cc1 , what is its reported outcome?
Output: inactive

Input: Please report the recorded outcome for O=S(=O)(O)NC1CCCCC1 .
Output: inactive

Input: Given NC(N)=NC(=O)c1nc(Cl)c(N)nc1N , state its recorded outcome.
Output: inactive

Input: Name the reported outcome value associated with the compound Nc1ccn([C@H]2CC[C@@H](CO)O2)c(=O)n1
Output: inactive

Input: Consider the compound O=C(c1ccccc1)c1ccccc1 and give its measured outcome.
Output: inactive

Input: May I ask what outcome has been recorded for NC(=O)NC1NC(=O)NC1=O (stereo unspecified) ?
Output: inactive

Input: Bench note: what outcome did Nc1ccc(S(=O)(=O)Nc2nccs2)cc1 show?
Output: inactive

Input: Consider the compound NNC(=O)c1ccncc1 and give its measured outcome.
Output: inactive

Continuing:
Input: Record request: outcome value, item CC(O)C(=O)O (stereo unspecified)
Output: inactive

Input: Record request: outcome value, item C/C=C/c1ccc(OC)cc1
Output: inactive

Input: Which outcome value belongs to NC(=O)c1ccccc1O ?
Output: inactive

====

molecular target: Thyrotropin receptor (Homo sapiens); experiment: qHTS assay to identify small molecule agonists of the thyroid stimulating hormone receptor (TSHR) signaling pathway (AID 1224843); conditions: TSHR-HEK293 cells, cAMP HTRF, agonist mode, 30 min; series mostly up to 92.4 µM; also: % is scaled to controls: 0 for no effect and ±100 for the full control effect; nearly all actives have a fitted effect of over 45% in size
Records with an inconclusive call do not appear. Calls of active or inactive are those of the source. Calls come from the whole dose curve.
MEASURE_NAME: outcome

Example entries begin here.
Input: Item: C1N2CN3CN1CN(C2)C3 Test system: Thyrotropin receptor (Homo sapiens) Read-out: outcome Value: ?
Output: inactive

Input: Return outcome measured with Thyrotropin receptor (Homo sapiens) given this compound: CCCN(CCC)S(=O)(=O)c1ccc(C(=O)O)cc1
Output: inactive

Input: Entry CCCNC(=O)NS(=O)(=O)c1ccc(Cl)cc1 , system Thyrotropin receptor (Homo sapiens): what outcome was measured?
Output: inactive

Input: Query outcome on Thyrotropin receptor (Homo sapiens) for CC(O)CO (stereo unspecified)
Output: inactive

Input: Notebook: pull reported outcome for Thyrotropin receptor (Homo sapiens), entry CCCC(CCC)C(=O)O
Output: inactive

More entries:
Input: # returns recorded outcome (system: Thyrotropin receptor (Homo sapiens)) for OC(Cn1cncn1)(Cn1cncn1)c1ccc(F)cc1F
Output: inactive
